Kindly state viability, T/C for each of the entries shown.
Test system: K24384-001-R-PDC complex spheroids, viability;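 also: spheroids exposed to compounds for seven days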
assay comment: Anticancer human tumor K24384-001-R-PDC patient-derived pancreatic adenocarcinoma cell line growth inhibition [GQUAD]
experimental context: second compound 3.16 µM; first compound 0.00999 µM; hits give low values

Here are 5 molecules together with their reported answers.
- molecule: "CC[C@@]1(O)C(=O)OCc2c1cc1n(c2=O)Cc2cc3c(CN(C)C)c(O)ccc3nc2-1 + Cc1[nH]c2ccc(F)cc2c1-c1nc2c3cccnc3c3ncccc3c2[nH]1"
  target: "K24384-001-R-PDC complex spheroids, viability"
  viability, T/C: "79.1%"
- molecule: "Cn1ncnc1[C@H]1c2n[nH]c(=O)c3cc(F)cc(c23)N[C@@H]1c1ccc(F)cc1 + Cc1cnc(CNC(=O)c2c(=O)c3ccc(N4CCCN(C)CC4)nc3n3c2sc2ccccc23)cn1"
  target: "K24384-001-R-PDC complex spheroids, viability"
  viability, T/C: "43.5%"
- molecule: "Cc1[nH]c2ccccc2c1CCNCc1ccc(/C=C/C(=O)NO)cc1 + CN(C)c1ccc(Nc2c3ccc(NC(=O)CCN4CCCC4)cc3nc3cc(NC(=O)CCN4CCCC4)ccc23)cc1"
  target: "K24384-001-R-PDC complex spheroids, viability"
  viability, T/C: "104%"
- molecule: "Cn1ncnc1[C@H]1c2n[nH]c(=O)c3cc(F)cc(c23)N[C@@H]1c1ccc(F)cc1 + CN(C)c1ccc(Nc2c3ccc(NC(=O)CCN4CCCC4)cc3nc3cc(NC(=O)CCN4CCCC4)ccc23)cc1"
  target: "K24384-001-R-PDC complex spheroids, viability"
  viability, T/C: "77.8%"
- molecule: "CC[C@@]1(O)C(=O)OCc2c1cc1n(c2=O)Cc2cc3c(CN(C)C)c(O)ccc3nc2-1 + Cc1cnc(CNC(=O)c2c(=O)c3ccc(N4CCCN(C)CC4)nc3n3c2sc2ccccc23)cn1"
  target: "K24384-001-R-PDC complex spheroids, viability"
  viability, T/C: "34.3%"

Answer for every listed entry: what is its viability, T/C? The entries follow.
1. Cc1[nH]c2ccccc2c1CCNCc1ccc(/C=C/C(=O)NO)cc1 + Cc1cnc(CNC(=O)c2c(=O)c3ccc(N4CCCN(C)CC4)nc3n3c2sc2ccccc23)cn1
2. Cc1[nH]c2ccccc2c1CCNCc1ccc(/C=C/C(=O)NO)cc1 + Cc1[nH]c2ccc(F)cc2c1-c1nc2c3cccnc3c3ncccc3c2[nH]1
3. Cn1ncnc1[C@H]1c2n[nH]c(=O)c3cc(F)cc(c23)N[C@@H]1c1ccc(F)cc1 + Cc1[nH]c2ccc(F)cc2c1-c1nc2c3cccnc3c3ncccc3c2[nH]1
4. CC[C@@]1(O)C(=O)OCc2c1cc1n(c2=O)Cc2cc3c(CN(C)C)c(O)ccc3nc2-1 + CN(C)c1ccc(Nc2c3ccc(NC(=O)CCN4CCCC4)cc3nc3cc(NC(=O)CCN4CCCC4)ccc23)cc1
5. CCc1c2c(nc3ccc(O)cc13)-c1cc3c(c(=O)n1C2)COC(=O)[C@]3(O)CC + CN(C)c1ccc(Nc2c3ccc(NC(=O)CCN4CCCC4)cc3nc3cc(NC(=O)CCN4CCCC4)ccc23)cc1

1: 35.4%; 2: 77.3%; 3: 72.3%; 4: 88.5%; 5: 37%

Answer for every listed entry: what is its viability, T/C? The entries follow.
1. CCc1c2c(nc3ccc(O)cc13)-c1cc3c(c(=O)n1C2)COC(=O)[C@]3(O)CC + Cc1cnc(CNC(=O)c2c(=O)c3ccc(N4CCCN(C)CC4)nc3n3c2sc2ccccc23)cn1
2. CCc1c2c(nc3ccc(O)cc13)-c1cc3c(c(=O)n1C2)COC(=O)[C@]3(O)CC + Cc1[nH]c2ccc(F)cc2c1-c1nc2c3cccnc3c3ncccc3c2[nH]1

["28.8%", "41.3%"]
